Values from paper PMC4020744

target: B-Raf^V600E; assay: V600E mutant B-Raf kinase inhibitory assay (B-Raf^V600E mediated MEK phosphorylation)
Sequence (P28028 whole entry V585E): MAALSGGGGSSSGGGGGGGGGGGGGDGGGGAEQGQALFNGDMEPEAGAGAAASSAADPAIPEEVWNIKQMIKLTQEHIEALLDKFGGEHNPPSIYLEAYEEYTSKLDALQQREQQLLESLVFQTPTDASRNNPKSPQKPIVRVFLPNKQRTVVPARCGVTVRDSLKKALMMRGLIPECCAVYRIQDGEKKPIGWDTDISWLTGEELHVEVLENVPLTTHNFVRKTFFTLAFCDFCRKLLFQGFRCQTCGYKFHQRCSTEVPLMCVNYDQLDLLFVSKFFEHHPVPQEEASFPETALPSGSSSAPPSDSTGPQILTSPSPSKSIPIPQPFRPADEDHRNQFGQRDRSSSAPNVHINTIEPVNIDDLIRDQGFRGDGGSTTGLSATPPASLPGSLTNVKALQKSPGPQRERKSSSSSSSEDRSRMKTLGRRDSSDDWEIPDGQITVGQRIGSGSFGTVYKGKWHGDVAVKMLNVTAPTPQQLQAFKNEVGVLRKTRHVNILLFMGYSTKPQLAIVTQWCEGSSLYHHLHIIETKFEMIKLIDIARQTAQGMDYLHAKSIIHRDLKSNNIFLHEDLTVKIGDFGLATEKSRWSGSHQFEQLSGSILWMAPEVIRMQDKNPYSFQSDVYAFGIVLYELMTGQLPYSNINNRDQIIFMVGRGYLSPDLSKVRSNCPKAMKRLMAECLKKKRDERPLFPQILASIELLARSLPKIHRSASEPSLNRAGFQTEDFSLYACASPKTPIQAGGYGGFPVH
pIC50: −log10 of the molar value.
Quantity Name: pIC50

For orientation, consider the following solved cases.
>>> value_observed("Oc1c(Cl)cc(Cl)cc1C1CC(c2ccc(Cl)cc2)=NN1c1ccccc1 (stereo not drawn)")
5.67
>>> value_observed("Oc1ccc(Cl)cc1C1CC(c2ccc(Cl)cc2)=NN1c1ccccc1 (stereo not drawn)")
5.58
>>> value_observed("Oc1ccc(Br)cc1C1CC(c2ccc(F)cc2)=NN1c1ccccc1 (stereo not drawn)")
5.56
>>> value_observed("Oc1c(Cl)cc(Cl)cc1C1CC(c2ccc(F)cc2)=NN1c1ccccc1 (stereo not drawn)")
5.65
>>> value_observed("Cc1ccc(C2=NN(c3ccccc3)C(c3cc(Cl)ccc3O)C2)cc1 (stereo not drawn)")
5.49

[a] Cc1ccc(C2=NN(c3ccccc3)C(c3cc(Br)ccc3O)C2)cc1 (stereo not drawn)
[b] Oc1ccc(Br)cc1C1CC(c2ccc(Br)cc2)=NN1c1ccccc1 (stereo not drawn)
[c] Oc1ccccc1C1CC(c2ccc(Cl)c(Cl)c2)=NN1c1ccccc1 (stereo not drawn)
[d] COc1ccc(C2=NN(c3ccccc3)C(c3cc(Br)ccc3O)C2)cc1 (stereo not drawn)
Request: In this exercise, place the 4 compounds in ascending sequence of their recorded pIC50. Answer by listing the labels in the order asked for.
Result: a, b, d, c

---

molecular target: B-Raf^V600E; experiment: V600E mutant B-Raf kinase inhibitory assay (B-Raf^V600E mediated MEK phosphorylation)
Quantity Name: IC50 (µM)

For orientation, consider the following solved cases.
>>> value_observed("COc1ccc(C2=NN(c3ccccc3)C(c3ccccc3O)C2)cc1 (stereo not drawn)")
0.51
>>> value_observed("Oc1ccccc1C1CC(c2ccc(Cl)cc2)=NN1c1ccccc1 (stereo not drawn)")
0.5
>>> value_observed("COc1ccc(C2=NN(c3ccccc3)C(c3cc(Cl)cc(Cl)c3O)C2)cc1 (stereo not drawn)")
1.01
>>> value_observed("Cc1ccc(C2=NN(c3ccccc3)C(c3ccccc3O)C2)cc1 (stereo not drawn)")
1.49
>>> value_observed("Oc1ccc(Br)cc1C1CC(c2ccc(Cl)cc2)=NN1c1ccccc1 (stereo not drawn)")
2.2

[P] Oc1ccc(Cl)cc1C1CC(c2ccc(Br)cc2)=NN1c1ccccc1 (stereo not drawn)
[Q] Oc1ccc(Cl)cc1C1CC(c2ccc(F)cc2)=NN1c1ccccc1 (stereo not drawn)
Request: Form field 'greater IC50' accepts P or Q ; which applies? Give the chosen item's label as your response.
Result: Q

[P] COc1ccc(C2=NN(c3ccccc3)C(c3cc(Cl)ccc3O)C2)cc1 (stereo not drawn)
[Q] Oc1ccc(Br)cc1C1CC(c2ccc(Cl)c(Cl)c2)=NN1c1ccccc1 (stereo not drawn)
Request: Could you tell me which of P and Q has the lower IC50 reading? Give the chosen item's label as your response.
Result: Q
(Q: 0.34 µM, P: 1.07 µM)

---

Measured melting point by item

For orientation, consider the following solved cases.
>>> value_observed("Oc1ccc(Cl)cc1C1CC(c2ccc(Cl)cc2)=NN1c1ccccc1 (stereo not shown)")
"68 to 71 °C"
>>> value_observed("Oc1ccccc1C1CC(c2ccc(F)cc2)=NN1c1ccccc1 (stereo not shown)")
"38 to 41 °C"
>>> value_observed("COc1ccc(C2=NN(c3ccccc3)C(c3cc(Cl)ccc3O)C2)cc1 (stereo not shown)")
"49 to 51 °C"
>>> value_observed("Cc1ccc(C2=NN(c3ccccc3)C(c3ccccc3O)C2)cc1 (stereo not shown)")
"32 to 34 °C"
>>> value_observed("Cc1ccc(C2=NN(c3ccccc3)C(c3cc(Cl)cc(Cl)c3O)C2)cc1 (stereo not shown)")
"29 to 31 °C"

Request: What measured melting point goes with Oc1ccc(Cl)cc1C1CC(c2ccc(Br)cc2)=NN1c1ccccc1 (stereo not shown) ?
Result: 90 to 93 °C

Request: What measured melting point goes with COc1ccc(C2=NN(c3ccccc3)C(c3cc(Br)ccc3O)C2)cc1 (stereo not shown) ?
Result: 65 to 67 °C
